Listing of entries alongside the reported pEC50.
# testedOn: P2Y purinoceptor 4 (Homo sapiens, UniProt P51582)
# Sequence (P51582 whole entry): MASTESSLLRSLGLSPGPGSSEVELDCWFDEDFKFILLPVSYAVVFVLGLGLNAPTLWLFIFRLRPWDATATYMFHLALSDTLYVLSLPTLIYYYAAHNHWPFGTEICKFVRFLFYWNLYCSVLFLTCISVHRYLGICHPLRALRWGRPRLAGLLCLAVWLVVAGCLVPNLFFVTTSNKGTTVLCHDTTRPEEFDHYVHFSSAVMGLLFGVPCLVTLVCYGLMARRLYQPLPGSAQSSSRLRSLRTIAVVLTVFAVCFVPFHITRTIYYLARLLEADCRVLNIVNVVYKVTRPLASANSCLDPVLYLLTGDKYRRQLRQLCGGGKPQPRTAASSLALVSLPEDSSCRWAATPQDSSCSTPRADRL
# assayMethodText: Agonist activity at human P2Y4 receptor expressed in human 1321N1 cells assessed as [3H]inositol phosphate accumulation by scintillation proximity assay
Reminder that pEC50 means the negative base-10 logarithm of the concentration expressed in mol/L.

Query: Sample O=c1[nH]c(=S)ccn1[C@@H]1O[C@H](COP(=O)(O)OP(=O)(O)OP(=O)(O)OP(=O)(O)OC[C@H]2O[C@@H](n3ccc(=S)[nH]c3=O)[C@H](O)[C@@H]2O)[C@@H](O)[C@H]1O — what was its pEC50?
Response: 7.10

Query: Sample O=c1[nH]c(=S)ccn1[C@@H]1O[C@H](COP(=O)(O)OP(=O)(O)OP(=O)(O)OP(=O)(O)O)[C@@H](O)[C@H]1O — what was its pEC50?
Response: 6.55

Query: Sample Nc1ccn([C@H]2C[C@H](O)[C@@H](COP(=O)(O)OP(=O)(O)OP(=O)(O)OP(=O)(O)OC[C@H]3O[C@@H](n4ccc(=O)[nH]c4=S)[C@H](O)[C@@H]3O)O2)c(=O)n1 — what was its pEC50?
Response: 6.15

Query: Sample CSc1ccn([C@@H]2O[C@H](COP(=O)(O)OP(=O)(O)OP(=O)(O)O)[C@@H](O)[C@H]2O)c(=S)n1 — what was its pEC50?
Response: 5.27

Query: Sample C[C@@]1(O)[C@H](O)[C@@H](COP(=O)(O)OP(=O)(O)OP(=O)(O)O)O[C@H]1n1ccc(=O)[nH]c1=O — what was its pEC50?
Response: 5.90

Query: Sample O=c1ccn([C@@H]2O[C@H](COP(=O)(O)OP(=O)(O)OP(=O)(O)OP(=O)(O)O)[C@@H](O)[C@H]2O)c(=O)[nH]1 — what was its pEC50?
Response: 5.33

Query: Sample N#CCCOP(=O)(O)OP(=O)(O)OP(=O)(O)OP(=O)(O)OC[C@H]1O[C@@H](n2ccc(=O)[nH]c2=O)[C@H](O)[C@@H]1O — what was its pEC50?
Response: 5.71

Query: Sample O=c1ccn([C@@H]2O[C@H](COP(=O)(O)OP(=O)(O)OP(=O)(O)O)[C@@H](O)[C@@H]2O)c(=S)[nH]1 — what was its pEC50?
Response: 5.10

Query: Sample O=c1ccn([C@@H]2O[C@H](COP(=O)(O)OP(=O)(O)OP(=O)(O)O)[C@@H](O)[C@H]2O)c(=O)[nH]1 [URIDINE TRIPHOSPHATE] — what was its pEC50?
Response: 7.05

Query: Sample O=c1ccn([C@@H]2O[C@H](COP(=O)(O)OP(=O)(O)OP(=O)(O)OC[C@H]3O[C@@H](n4ccc(=O)[nH]c4=O)[C@H](O)[C@@H]3O)[C@@H](O)[C@H]2O)c(=O)[nH]1 — what was its pEC50?
Response: 6.06

----------
Listing of entries alongside the reported EC50.
# testedOn: P2Y purinoceptor 6 (Homo sapiens, UniProt Q15077)
# Sequence (Q15077 whole entry): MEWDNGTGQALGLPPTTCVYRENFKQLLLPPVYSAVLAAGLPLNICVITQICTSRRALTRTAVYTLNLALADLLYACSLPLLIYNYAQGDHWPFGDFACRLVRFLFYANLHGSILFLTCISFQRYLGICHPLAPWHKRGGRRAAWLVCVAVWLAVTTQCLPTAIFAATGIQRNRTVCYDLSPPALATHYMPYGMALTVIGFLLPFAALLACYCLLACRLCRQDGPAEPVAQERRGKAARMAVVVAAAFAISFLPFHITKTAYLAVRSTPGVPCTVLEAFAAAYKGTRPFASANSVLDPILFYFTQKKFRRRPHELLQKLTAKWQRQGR
# assayMethodText: Agonist activity at human P2Y6 receptor expressed in human 1321N1 cells assessed as [3H]inositol phosphate accumulation by scintillation proximity assay
Record the value in nM, omitting the unit from your answer.

Example cases with answers are listed next.
Nc1ccn([C@H]2C[C@H](O)[C@@H](COP(=O)(O)OP(=O)(O)OP(=O)(O)OP(=O)(O)OC[C@H]3O[C@@H](n4ccc(=O)[nH]c4=O)[C@H](O)[C@@H]3O)O2)c(=O)n1	950
Nc1nc2c(ncn2[C@H]2C[C@H](O)[C@@H](COP(=O)(O)OP(=O)(O)OP(=O)(O)OP(=O)(O)OC[C@H]3O[C@@H](n4ccc(=O)[nH]c4=O)[C@H](O)[C@@H]3O)O2)c(=O)[nH]1	1030

Query: Sample Nc1ccn([C@H]2C[C@H](O)[C@@H](COP(=O)(O)OP(=O)(O)OP(=O)(O)OP(=O)(O)OC[C@H]3O[C@@H](n4ccc(=O)[nH]c4=S)[C@H](O)[C@@H]3O)O2)c(=O)n1 — what was its EC50?
Response: 1050
